# Target entity: ABCC4-PDZ motif and MPP1 interaction (Homo sapiens, UniProt O15439+Q00013)
# Sequence (Q00013 whole entry): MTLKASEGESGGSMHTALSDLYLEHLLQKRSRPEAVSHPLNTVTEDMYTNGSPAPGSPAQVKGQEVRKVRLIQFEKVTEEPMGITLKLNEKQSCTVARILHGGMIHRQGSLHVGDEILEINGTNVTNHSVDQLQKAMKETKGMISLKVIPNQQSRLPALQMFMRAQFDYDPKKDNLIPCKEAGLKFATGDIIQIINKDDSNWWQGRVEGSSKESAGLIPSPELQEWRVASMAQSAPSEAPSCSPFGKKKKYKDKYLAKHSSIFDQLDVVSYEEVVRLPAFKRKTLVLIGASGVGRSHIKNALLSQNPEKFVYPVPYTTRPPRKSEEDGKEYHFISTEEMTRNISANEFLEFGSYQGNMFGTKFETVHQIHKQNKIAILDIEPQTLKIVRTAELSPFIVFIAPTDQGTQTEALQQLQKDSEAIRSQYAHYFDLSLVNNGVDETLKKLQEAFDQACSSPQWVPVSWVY
# Sequence (O15439 1301-1325): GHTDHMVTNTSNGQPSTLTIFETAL
# Assay method text: biochemical
# Experimental setup: figure value; 10 concentrations 3.5 nM to 70 μM, 500 nM B-ABCC4, 5 nM His-S-MPP1, triplicate; read-out: IC50 for disruption of MPP1 and ABCC4 interaction (TR-FRET)
Attribute measured: pIC50
Please express pIC50 as -log10 of the molar concentration.

So what's the measured pIC50 for this one? CCCCCC[C@H]1C(=O)O[C@H](C)[C@H](NC(=O)c2cccc(NC=O)c2O)C(=O)O[C@@H](C)[C@@H]1OC(=O)CC(C)C [Antimycin A]
8.41

###

# System: MO7e cells
# Assay method text: 6MP cytotoxicity in MO7e cells and CRISPR knock-outs
# Format: cell-based, Human
# Experimental setup: Homo sapiens, Mo7e, 96 h, MO7e parental; Fig. 4f, CellTiter Glo, triplicate
# Procedure: HEK293 cells transfected with ABCC4 or ABCC4ΔC in the presence or absence of MPP1, MO7e, and Meg01 cells were treated with 10 concentrations of 6MP, ranging from 1 to 1000 µM, for 96 h. Cell viability analysis was determined using CellTiter Glo (Promega). […] IC50 values were calculated using GraphPad Prism. […] The Meg01, MO7e, and ABCC4 KO MO7e cell lines were plated at 1500 cells per well in a 96-well plate. […] Cell viability was determined using CellTiter Glo (Promega). […]
Attribute measured: pIC50
Units for pIC50: none; it is -log10 of a concentration expressed in mol/L.

Give its pIC50 value. Item: Sc1ncnc2nc[nH]c12
3.87
